// provenance: the supplement of paper PMC6089552

tested on: A673/TR/shEF; test: cell viability (LOESS-normalised, relative to median of negative controls) (log2 ratio); higher = more viable cells (less compound effect), active = hit call of the paper (over 3 MAD below the median); settings: 0.025 µM; library screen: screen2; EWS-FLI1 expression: low (doxycycline-induced shRNA knockdown); treatment time: 72 h
Among all 3,200 compounds or so, about 300 (9.4%) showed activity. This excerpt belongs to a sample that is enriched for actives.
Measured cell viability (log2) by item
Kindly provide the number alone.

These solved cases illustrate the format of a correct answer.
{"COMPOUND": "CCc1cn([C@H]2C[C@H](O)[C@@H](CO)O2)c(=O)[nH]c1=O", "STUDY_TARGET": "A673/TR/shEF", "cell viability (log2)": 0.0914}
{"COMPOUND": "NC(Cc1ccc(F)cc1)C(=O)O (stereo unspecified)", "STUDY_TARGET": "A673/TR/shEF", "cell viability (log2)": 0.0851}
{"COMPOUND": "COc1cc(NC(C)CCCN)c2ncccc2c1 (stereo unspecified)", "STUDY_TARGET": "A673/TR/shEF", "cell viability (log2)": -0.00137}
{"COMPOUND": "O=C(O)CCC(=O)OCC(NC(=O)C(Cl)Cl)C(O)c1ccc([N+](=O)[O-])cc1 (stereo unspecified)", "STUDY_TARGET": "A673/TR/shEF", "cell viability (log2)": 0.0706}
{"COMPOUND": "Cc1cn([C@H]2C[C@H](N=[N+]=[N-])[C@@H](CO)O2)c(=O)[nH]c1=O", "STUDY_TARGET": "A673/TR/shEF", "cell viability (log2)": 0.0603}

Query: Which cell viability (log2) is reported for this compound? `COC(=O)Nc1nc2ccc(Sc3ccccc3)cc2[nH]1`
Response: 0.0311
